Origin of the recorded values: ChEMBL document CHEMBL1155395

Biological target: Bombesin receptor subtype-3 (Mus musculus)
Sequence (O54798 whole entry): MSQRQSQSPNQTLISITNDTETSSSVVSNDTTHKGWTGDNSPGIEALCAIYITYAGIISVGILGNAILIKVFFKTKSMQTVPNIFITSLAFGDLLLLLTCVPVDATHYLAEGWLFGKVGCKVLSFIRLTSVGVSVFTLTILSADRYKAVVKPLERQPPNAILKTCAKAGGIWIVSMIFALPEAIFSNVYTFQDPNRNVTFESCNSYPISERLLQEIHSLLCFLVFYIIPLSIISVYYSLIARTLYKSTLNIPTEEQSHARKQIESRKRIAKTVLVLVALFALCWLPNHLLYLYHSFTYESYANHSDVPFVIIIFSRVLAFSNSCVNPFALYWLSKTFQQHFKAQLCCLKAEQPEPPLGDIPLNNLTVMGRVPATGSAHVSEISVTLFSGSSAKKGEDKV
Assay: Agonistic activity at mouse BRS3 expressed in HEK293AEO cells by aequorin bioluminescence assay
Measurement Label: EC50 (nM)

Example cases with answers are listed next.
O=C(O)c1ccccc1-c1ccc(CCc2ncc(Cc3ccccc3Cl)[nH]2)cc1 = 22
O=C(O)c1ccccc1-c1ccc(CCc2ncc(Cc3ccccc3F)[nH]2)cc1 = 9.5
O=C(O)c1ccccc1-c1ccc(CCc2ncc(Cc3cccc(Cl)c3)[nH]2)cc1 = 31

(a) O=C(O)c1ccccc1-c1ccc(CCc2ncc(CC3CCCCC3)[nH]2)cc1
(b) CCCCc1cnc(/C=C/c2ccc(-c3ccccc3C(=O)O)cc2)[nH]1
(c) O=C(O)c1ccccc1-c1ccc(CCc2ncc(CCc3ccccc3)[nH]2)cc1
Qu. Provide the items ranked by increasing EC50. Respond with the label ranking, as requested.
Ans. a, c, b

(a) O=C(O)c1ccccc1-c1ccc(CCc2nc(-c3ccccc3)c[nH]2)cc1
(b) O=C(O)c1ccccc1-c1ccc(CCc2ncc(CC3CCC3)[nH]2)cc1
Qu. Would you mind telling me which has the lower recorded EC50 between a and b ? To answer, give the label that identifies your chosen option.
Ans. b
